System: UO-31 renal
Method Description: NCI tumour cell line growth inhibition, 48 h
Readout Type: TGI

Reported TGI of `Cc1cc2c(C)cc(=O)[nH]c2cc1N` : > 100 µM

Reported TGI of `COc1c2c(c3c(c1CCC(=O)O)OC(C)(C)C=C3)OC(C)(C)C=C2` : > 100 µM

Reported TGI of `COCOc1ccc(OC)cc1` : > 100 µM

###

Test system: NCI-H226 lung
Method Description: NCI tumour cell line growth inhibition, 48 h
# maps each entry to its TGI

Answered cases to consult:
# Compound, TGI
data = [
    ("Cc1ccc(C(=O)O/N=C2/CCC/C2=C\\c2ccccc2)cc1", "> 100 µM"),
    ("COc1ccc(Nc2nc3ccc(C(F)(F)F)cc3nc2C(=O)O)cc1OC", "> 100 µM"),
    ("N#CC(C(=O)/C(=N/NC(=O)c1ccccc1O)C(C#N)c1ccc(Cl)cc1)c1ccc(Cl)cc1 (stereo not drawn)", "31.8 µM"),
]

Reported TGI of `Cc1ccncc1.[O]=[Ge].[O]=[Ge].[O]=[Ge].[O]=[Ge].[O]=[Ge].[O]=[Ge][OH].[O]=[Ge][OH]` : > 100 µM

Reported TGI of CC(=O)N/N=C1/NN(C(C)=O)C2(S1)C(=O)Nc1ccc(Br)cc12 (stereo not drawn) : > 100 µM

Reported TGI of `CCN(CC)CCn1ccc(=O)c2cc3c(=O)ccn(CCN(CC)CC)c3c(C)c21` : 23.8 µM

###

System: HS 578T breast
Method Description: NCI tumour cell line growth inhibition, 48 h; in the data active means GI50 below about 0.43 µM; inactive means the rest
Your answer must be one of the following: 1.0 (active), 0.0 (inactive)

Some solved entries appear below for comparison.
# Compound, Cat
measured = [
    ("COc1ccc2nc3cc([N+](=O)[O-])ccc3c(NCCCCCN(C)C)c2c1", 0.0),
    ("COC1(C(=O)N[C@@H](C)c2ccc(-n3cc(F)cn3)nc2)CCC(c2nc(C)cc(Nc3cc(C)[nH]n3)n2)CC1 (some centres not stated)", 1.0),
    ("Nc1c(C(=O)Nc2cccc([N+](=O)[O-])c2)sc2nc3c(cc12)C(O)CCC3 (configuration not stated)", 0.0),
    ("CN1CCN(CCc2cccc(C(=O)c3cnn(-c4ccc(F)cc4)c3N)c2)CC1", 0.0),
    ("ClCCn1c(CCl)nc2ccc(Cl)cc21", 0.0),
]

Call for entry `COc1c(CCC[P+](c2ccccc2)(c2ccccc2)c2ccccc2)cc2c(c1OC)OCO2` :
0.0

Call for entry `COC(=O)/C=C/C=C(c1ccccc1)c1ccccc1` :
0.0

###

Tested on: LOX IMVI melanoma
Method Description: NCI tumour cell line growth inhibition, 48 h
# maps each entry to its TGI

Answered cases to consult:
# Molecule, TGI
rows = [
    ("CC1(C)C(c2ccccc2)=[N+]([O-])C(C)(C)N1O", "> 10 µM"),
    ("O=C(O)[C@@H]1C[C@@H](O)CN1C(=O)OCc1ccccc1", "> 100 µM"),
    ("COC(=O)CCC1CCc2c(OC)ccc(O)c2C1=O (centres undefined)", "> 100 µM"),
]

Reported TGI of `COc1cc(OCc2ccc3oc(=O)c(-c4ccccc4)nc3c2)cc(OC)c1OC` : > 100 µM

Reported TGI of `CN(C)S(=O)(=O)c1ccc(NC(=O)COC(=O)c2ccc(S(=O)(=O)N3CCCCC3)cc2)cc1` : > 100 µM

Reported TGI of Cc1cccc(NC(=O)CC(=O)N2N=C(N(CCC#N)c3ccc(Cl)cc3)CC2c2ccccc2)c1 (centres undefined) : > 100 µM

Reported TGI of `O=C([O-])c1ccccc1Nc1ccccn1.O=C([O-])c1ccccc1Nc1ccccn1.[Ni+2]` : > 100 µM

Reported TGI of `COc1ccccc1NC(=O)C1=C(C)NC(C)=C(C(=O)Nc2ccccc2OC)C1c1ccccc1F` : > 100 µM

Reported TGI of `CCOC(=O)C1=C(C(C)=O)CSC(c2ccccc2)=N1` : > 100 µM

Reported TGI of `Nc1nn2c(C(Br)Br)cc(C(Br)Br)nc2c1[N+](=O)[O-]` : 0.799 µM

Reported TGI of COc1ccccc1NC(=O)CC(=O)N1N=C(C)C(N=Nc2ccc(S(N)(=O)=O)cc2)C1=O (centres undefined) : > 100 µM

Reported TGI of `COc1ccc(-c2cc(=O)c3cc4c(cc3[nH]2)OCO4)c(OC)c1OC` : > 100 µM

Reported TGI of `C=C1C(=O)O[C@H]2[C@H]1CC/C(COC(=O)NCc1ccccc1OC)=C\CC[C@@]1(C)O[C@@H]21` : 2.96 µM

Reported TGI of `CNC(=O)n1ccc2cc(Oc3ccnc(NC(=O)c4ccc(C5CCN(CCO)CC5)cc4)c3)c(OCCOC)cc21` : 3.7 µM
